assay: gradient 5% acetonitrile 3 min, to 50% in 2 min, to 85% in 15 min, held 3 min, 100 µL/min; conditions: column: Zorbax Extend-C18 2.1 x 50 mm; eluents: water / acetonitrile, 0.1% formic acid
Output MET for RP-LC retention time not less than 800 s; output NOT MET otherwise.

[
  {
    "compound": "Cc1nc(-c2ccc(N3CCN(C(=O)c4ccccc4F)CC3)nc2)sc1C",
    "cat": "MET"
  },
  {
    "compound": "Cn1nc(C(=O)N2CCCC2)c2c1CCN(C(=O)CCC(=O)NC1CCCCC1)C2",
    "cat": "NOT MET"
  },
  {
    "compound": "O=C(Cn1nc(-c2cccs2)ccc1=O)Nc1nc2c(s1)CCCC2",
    "cat": "NOT MET"
  }
]

# bool: RP-LC retention time of CCc1cc(C(=O)Nc2cc(OC)ccc2OC)nc2cc(-c3ccco3)nn12 >= 800 s
MET

Textbook exercise: given the entry COc1cc(CSc2nc(CC(=O)NCc3cccs3)cs2)cc(OC)c1 , state whether its RP-LC retention time is greater than or equal to 800 s.
MET

Textbook exercise: given the entry CS(=O)(=O)N(Cc1cccnc1)C1CN(C(=O)Nc2ccc3c(c2)OCCO3)C1 , state whether its RP-LC retention time is greater than or equal to 800 s.
NOT MET

Given Cc1[nH]c(C)c(S(=O)(=O)N2CCN(c3ccccn3)CC2)c1C(=O)N1CCCCC1 , state whether its RP-LC retention time is at least 800 s.
NOT MET

Threshold query (RP-LC retention time >= 800 s) on Cc1ccc(Cn2c(=O)n(CCNC(=O)CC(C)(C)C)c3ncccc32)cc1
MET

Identify whether the reported RP-LC retention time of the following compound is 800 s or greater: Cc1cnc(-n2nnc(C(=O)N3CCN(C(=O)c4ccco4)CC3)c2C)s1
NOT MET

# bool: RP-LC retention time of COC(=O)c1ccccc1NC(=O)C1(c2cccs2)CCOCC1 >= 800 s
MET

Does O=C(N[C@H]1C[C@@H]2C[C@H]1CN2C(=O)c1cccc(OC(F)(F)F)c1)c1ccccc1 have a reported RP-LC retention time of at least 800 s?
MET
